- measured-target: Bromodomain-containing protein 4 [44-168] (Human)
- Construct: 44-168
- protocol-summary: AlphaScreen BRD Binding Assay
- test-conditions: pH 7.5; 25 °C
Known IC50 of a selection of molecules

1. COc1cc2c(cc1-c1c(C)noc1C)ncc1c2n([C@H](C)c2ccccn2)c(=O)n1CC(=O)NCCOCCOCCOCCOCCOCCOCCOCCNC(=O)Cn1c(=O)n([C@@H](C)c2ccccn2)c2c3cc(OC)c(-c4c(C)noc4C)cc3ncc21    30.5 nM

Proceed to the following item.
Ask: Which value of IC50 has been reported for COC(=O)CC1N=C(c2ccc(Cl)cc2)c2c(sc(C(=O)NCCOCCOCCOCCOCCNC(=O)Cn3c(=O)n([C@H](C)c4ccccn4)c4c5cc(OC)c(-c6c(C)noc6C)cc5ncc43)c2C)-n2c(C)nnc21 (some centres not stated) in the records?
Reply: 10.3 nM

###

- measured-target: Bromodomain-containing protein 4 [44-168] (Human)
- Construct: 44-168
- protocol-summary: BROMOscan Assay
Known Kd of a selection of compounds
# number only, unit pM dropped from output

1) COC(=O)C[C@@H]1N=C(c2ccc(Cl)cc2)c2c(sc(C(=O)NCCNC(=O)C[C@@H]3N=C(c4ccc(Cl)cc4)c4c(sc(C)c4C)-n4c(C)nnc43)c2C)-n2c(C)nnc21    34
2) COC(=O)C[C@@H]1N=C(c2ccc(Cl)cc2)c2c(sc(C(=O)NCCOCCOCCOCCNC(=O)C[C@@H]3N=C(c4ccc(Cl)cc4)c4c(sc(C)c4C)-n4c(C)nnc43)c2C)-n2c(C)nnc21    29
3) COc1cc2c(cc1-c1c(C)noc1C)ncc1c2n([C@H](C)c2ccccn2)c(=O)n1CC(=O)NCCOCCOCCNC(=O)C[C@@H]1N=C(c2ccc(Cl)cc2)c2c(sc(C)c2C)-n2c(C)nnc21    62

Ask: Which value of Kd has been reported for COC(=O)C[C@@H]1N=C(c2ccc(Cl)cc2)c2c(sc(C(=O)NCCOCCOCCNC(=O)C[C@@H]3N=C(c4ccc(Cl)cc4)c4c(sc(C)c4C)-n4c(C)nnc43)c2C)-n2c(C)nnc21 in the records?
Reply: 14

Ask: Next compound up: COC(=O)C[C@@H]1N=C(c2ccc(Cl)cc2)c2c(sc(C(=O)NCCOCCOCCOCCOCCNC(=O)C[C@@H]3N=C(c4ccc(Cl)cc4)c4c(sc(C)c4C)-n4c(C)nnc43)c2C)-n2c(C)nnc21
Reply: 23

Ask: Next compound up: COC(=O)C[C@@H]1N=C(c2ccc(Cl)cc2)c2c(sc(C(=O)NCCOCCOCCOCCOCCOCCOCCOCCNC(=O)C[C@@H]3N=C(c4ccc(Cl)cc4)c4c(sc(C)c4C)-n4c(C)nnc43)c2C)-n2c(C)nnc21
Reply: 26

###

- measured-target: Bromodomain testis-specific protein [21-137] (Homo sapiens)
- Construct: 21-137
- protocol-summary: AlphaScreen BRD Binding Assay
- test-conditions: pH 7.5; 25 °C
Known IC50 of a selection of compounds
# number then unit; no other words

1) COc1cc2c(cc1-c1c(C)noc1C)ncc1c2n([C@H](C)c2ccccn2)c(=O)n1CC(=O)NCCNC(=O)Cn1c(=O)n([C@@H](C)c2ccccn2)c2c3cc(OC)c(-c4c(C)noc4C)cc3ncc21 [IBETx2-PEG0 (29)]    203 nM

Proceed to the following item.
Ask: Which value of IC50 has been reported for COC(=O)CC1N=C(c2ccc(Cl)cc2)c2c(sc(C(=O)NCCOCCOCCOCCOCCOCCOCCOCCNC(=O)Cn3c(=O)n([C@H](C)c4ccccn4)c4c5cc(OC)c(-c6c(C)noc6C)cc5ncc43)c2C)-n2c(C)nnc21 (stereo partly specified) [2S+IBET-PEG7 (28)] in the records?
Reply: 13.2 nM
